Assay: binders of probe aFGF2 on microarray, primary screen, stem cell growth factor project, biochemical, small-molecule microarray, fluorescence 635/667 (AID 1067);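 note: measures binding of biotinylated aFGF2 protein to printed compounds on slides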
Details: higher = more signal
Values of composite z-score greater than or equal to 0.04 map to rule met; values below map to rule not met.

Decide: composite z-score of NC(=O)NCC#Cc1ccc2c(c1)[C@]1(C(=O)N2)[C@H](c2ccc(O)cc2)N2[C@H](c3ccccc3)[C@H](c3ccccc3)OC(=O)[C@H]2[C@@H]1C(=O)O >= 0.04?
rule not met

Given CCC[C@@H]1C[C@@]1(CCC)[C@@H](NS(=O)(=O)c1cccc2cccnc12)c1ccc(Cl)cc1 , state whether its composite z-score is at least 0.04.
rule not met

Answer whether composite z-score of C=CCOC(=O)[C@H]1[C@@H]2C(=O)O[C@@H](c3ccccc3)[C@@H](c3ccccc3)N2[C@@H](c2ccc(OCCOC(=O)[C@@H]3C[C@@H]4C(=O)N[C@@H](CC(C)C)C(=O)N4[C@@H]3c3ccc(O)cc3)cc2)[C@]12C(=O)Nc1ccccc12 is greater than or equal to 0.04.
rule not met

Can CCOC(=O)C[C@H]1[C@H](OC(=O)c2ccc(C(=O)c3ccccc3)cc2)[C@@H](NC(=O)c2ccccc2)c2cc(OCCCO)ccc2N1C(=O)Cc1ccc(OC)cc1 be said to have composite z-score at or above 0.04?
rule not met

Textbook exercise: given the entry COC(=O)[C@@]1(Cc2ccc(OC)cc2)[C@H]2c3cc(C(=O)N(C)C)n(CCc4ccccn4)c3C[C@H]2CN1C(=O)c1ccccc1 , state whether its composite z-score is greater than or equal to 0.04.
rule met

For this molecule, is measured composite z-score 0.04 or higher? COC(=O)[C@@]1(Cc2ccc(F)cc2)[C@H]2c3cc(C(=O)N4CCCC4)n(CCCNc4ncc(C(F)(F)F)cc4Cl)c3C[C@H]2CN1C(=O)c1ccccc1
rule met

Data credit: PubChem BioAssay
